Entries and their remaining activity values follow.
SUBJECT_OF_TEST: Phospholipase D1 (Homo sapiens) (UniProt Q13393)
Sequence (Q13393 whole entry, looked up): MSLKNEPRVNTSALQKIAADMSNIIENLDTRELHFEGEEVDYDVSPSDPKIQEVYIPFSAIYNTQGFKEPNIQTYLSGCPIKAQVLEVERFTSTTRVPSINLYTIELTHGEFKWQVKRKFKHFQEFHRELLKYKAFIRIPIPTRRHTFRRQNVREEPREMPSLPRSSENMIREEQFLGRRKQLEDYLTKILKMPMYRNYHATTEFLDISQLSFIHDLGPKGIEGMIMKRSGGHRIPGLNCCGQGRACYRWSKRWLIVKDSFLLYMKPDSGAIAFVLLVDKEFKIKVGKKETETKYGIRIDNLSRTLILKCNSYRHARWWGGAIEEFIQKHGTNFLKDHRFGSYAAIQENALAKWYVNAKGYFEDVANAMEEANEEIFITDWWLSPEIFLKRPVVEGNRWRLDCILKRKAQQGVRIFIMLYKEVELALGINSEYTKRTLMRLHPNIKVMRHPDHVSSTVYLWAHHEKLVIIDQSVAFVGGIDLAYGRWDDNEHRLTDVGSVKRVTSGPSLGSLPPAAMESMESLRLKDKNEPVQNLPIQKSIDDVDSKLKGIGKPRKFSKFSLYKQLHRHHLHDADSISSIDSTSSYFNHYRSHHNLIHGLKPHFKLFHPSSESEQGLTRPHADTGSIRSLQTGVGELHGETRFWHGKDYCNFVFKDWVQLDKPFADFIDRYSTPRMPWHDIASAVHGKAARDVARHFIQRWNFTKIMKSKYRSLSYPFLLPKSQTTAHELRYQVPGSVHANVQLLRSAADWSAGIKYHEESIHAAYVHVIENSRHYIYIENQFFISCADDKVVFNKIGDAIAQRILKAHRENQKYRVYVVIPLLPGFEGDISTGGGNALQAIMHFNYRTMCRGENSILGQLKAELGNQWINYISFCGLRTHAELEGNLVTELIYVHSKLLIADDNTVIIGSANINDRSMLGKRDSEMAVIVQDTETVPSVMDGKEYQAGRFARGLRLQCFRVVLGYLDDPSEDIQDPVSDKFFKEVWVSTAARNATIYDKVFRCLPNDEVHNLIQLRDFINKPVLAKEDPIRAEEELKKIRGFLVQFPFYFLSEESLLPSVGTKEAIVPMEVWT
Sequence (Q13393 whole entry, looked up): as above
ASSAY_REMARKS: PLD1 inhibitors in cells, Calu-1 cells, single concentration (AID 602144);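 also: tested at 200 nM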
MEASUREMENT_PARAMETERS: cellular PLD1 activity, active compounds read low
Write the value in % as a bare number.

Completed entries (count: 5):
> print(dat)
                                     smiles  measured.number
1  O=C(NCCN1CCC(n2c(=O)[nH]c3ccccc32)CC1)N1c2ccccc2C=Cc2ccccc21             92.3
2  CCNC(=S)NCCN1CCC(n2c(=O)[nH]c3ccccc32)CC1              144
3  CC(C(=O)NCCN1CCN(c2ccncc2)CC1)(c1ccccc1)c1ccccc1              204
4  C[C@@H](CN1CC=C(n2c(=O)[nH]c3ccccc32)CC1)NC(=O)c1ccc2ccccc2c1           0.0151
5     O=c1[nH]c2ccccc2n1C1CCN(CCN2CCCC2)CC1              112

The observed remaining activity for COc1ccc(S(=O)(=O)NCCN2CCC(n3c(=O)[nH]c4ccccc43)CC2)cc1OC when tested with Phospholipase D1 (Homo sapiens) (UniProt Q13393) stands at 115

The observed remaining activity for O=C(NCCN1CCC(n2c(=O)[nH]c3ccccc32)CC1)c1cscn1 when tested with Phospholipase D1 (Homo sapiens) (UniProt Q13393) stands at 16.7

The observed remaining activity for O=C(NCCN1CCC(n2c(=O)[nH]c3ccc(F)cc32)CC1)c1ccc(C(F)(F)F)cc1 when tested with Phospholipase D1 (Homo sapiens) (UniProt Q13393) stands at 19.1

The observed remaining activity for CC(=O)c1cccc(NC(=O)NCCN2CCC(n3c(=O)[nH]c4ccccc43)CC2)c1 when tested with Phospholipase D1 (Homo sapiens) (UniProt Q13393) stands at 137

The observed remaining activity for O=C(NCCN1CCN(c2ccncc2)CC1)c1ccc(F)cc1O when tested with Phospholipase D1 (Homo sapiens) (UniProt Q13393) stands at 152

----------
Entries and their remaining activity values follow.
SUBJECT_OF_TEST: Phospholipase D1 (Homo sapiens)
ASSAY_REMARKS: PLD1 inhibitors in cells, Calu-1 cells, single concentration (AID 602144);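 also: tested at 200 nM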
MEASUREMENT_PARAMETERS: cellular PLD1 activity, active compounds read low
Write the value in % as a bare number.

Completed entries (count: 3):
> print(dat)
                                   compound  unit.tag  measured.number
1  O=C(NCCN1CCC(n2c(=O)[nH]c3ccccc32)CC1)c1cc2ccccc2c2ccccc12         %             7.23
2  O=C(NCCN1CCC(n2c(=O)[nH]c3cc(Cl)ccc32)CC1)c1ccc2ccccc2c1         %             10.3
3  O=C(NCCN1CCC(n2c(=O)[nH]c3ccccc32)CC1)Nc1cccc(OC(F)(F)F)c1         %              131

Let us move to another entry and its remaining activity.
Field remaining activity (entry O=C(NCCN1CCC(n2c(=O)[nH]c3ccccc32)CC1)c1cc2ccc3ccccc3c2c2ccccc12 ) reads 76.6

----------
Entries and their remaining activity values follow.
SUBJECT_OF_TEST: Phospholipase D1 (Homo sapiens)
ASSAY_REMARKS: PLD1 inhibitors in cells, Calu-1 cells, single concentration (AID 602144);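 also: tested at 200 nM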
MEASUREMENT_PARAMETERS: cellular PLD1 activity, active compounds read low
Write the value in % as a bare number.

Field remaining activity (entry Cc1ccccc1NC(=S)NCCN1CCC(n2c(=O)[nH]c3ccccc32)CC1 ) reads 173

Field remaining activity (entry O=C(CCN1CCC(n2c(=O)[nH]c3ccccc32)CC1)NCc1ccc(Cl)cc1 ) reads 98.9

Field remaining activity (entry O=C(NCCN1CC=C(n2nnc3cc(C(F)(F)F)ccc32)CC1)c1cnc2ccccc2c1 ) reads 44.5

Where do these numbers come from? They come from PubChem BioAssay AID602144.
